System: empty nanodisc (Empty ND)
Sequence (P02647 79-267): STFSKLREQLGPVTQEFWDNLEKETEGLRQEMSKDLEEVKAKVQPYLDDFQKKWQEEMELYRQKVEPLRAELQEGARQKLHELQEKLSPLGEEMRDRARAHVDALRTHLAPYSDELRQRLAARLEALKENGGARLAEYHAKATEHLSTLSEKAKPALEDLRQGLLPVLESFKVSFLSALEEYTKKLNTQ
Experiment Notes: flow cytometry, yeast-displayed Fab, 50 nM Empty ND, after background subtraction
Catalogue of binders with associated Relative binding fold change compared to LIBC528116 (Fab)
Please state the figure in fold; there is no need to write the unit.

LIBC681593-1 (yeast-displayed Fab) (Fab, V domains shown) VH: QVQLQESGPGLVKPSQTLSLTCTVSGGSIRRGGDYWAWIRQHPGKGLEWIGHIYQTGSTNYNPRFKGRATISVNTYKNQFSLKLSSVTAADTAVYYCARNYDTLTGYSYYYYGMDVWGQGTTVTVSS VL: DIQMTQSPSSLSASVGDRVTITCRASQSISSYLNWYQQKPGKAPKLLIYNARRLGSGVPSRFSGSGSGTDFTLTISSLQPEDFATYYCQQYRSSPVTFGGGTKVEIKR
0.91
LIBC680812-1 (yeast-displayed Fab) (Fab, V domains shown) VH: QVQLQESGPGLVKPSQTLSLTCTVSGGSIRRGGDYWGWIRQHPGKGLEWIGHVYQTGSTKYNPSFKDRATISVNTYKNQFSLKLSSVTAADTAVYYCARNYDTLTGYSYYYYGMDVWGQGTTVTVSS VL: DIQMTQSPSSLSASVGDRVTITCRASQSISSYLNWYQQKPGKAPKLLIYSARRLSSGVPSRFSGSGSGTDFTLTISSLQPEDFATYYCQQYRSYPITFGGGTKVEIKR
0.74

Consider the record given below.
**Q:** Please supply the value of reported Relative binding fold change compared to LIBC528116 (Fab) for the item LIBC680800-1 (yeast-displayed Fab) (Fab, V domains shown) VH: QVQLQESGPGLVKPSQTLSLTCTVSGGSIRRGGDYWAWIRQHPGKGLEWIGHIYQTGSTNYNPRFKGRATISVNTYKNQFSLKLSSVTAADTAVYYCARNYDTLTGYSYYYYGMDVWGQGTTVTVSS VL: DIQMTQSPSSLSASVGDRVTITCRASQSISSYLNWYQQKPGKAPKLLIYSARALSSGVPSRFSGSGSGTDFTLTISSLQPEDFATYYCQQYRKFPLTFGGGTKVEIKR
**A:** 0.78
